# Test system: P388 leukemia ip, CD2F1 mice, survival T/C
# method description: NCI In Vivo Anticancer Drug Screen. Data for tumor model P388 Leukemia (intraperitoneal) in CD2F1 (CDF1) mice
# condition description: endpoint: median survival time; dose: 240.0 mg/kg/injection; schedule: Q01DX005 (ip); vehicle: saline with Tween-80; higher = longer survival
Toxic doses and inconclusive results are not listed.
# T/C values compiled below

Requested read-out: T/C. Entry: CCOC(=O)CC(SCP(=O)(OCC)OCC)C(=O)OCC (configuration not stated)
93 % of control

T/C for CCOC(=O)c1[nH]c(=S)sc1N ?
90 % of control

Please look up its T/C: O=C(CCN1C(=O)NC(c2ccccc2)(c2ccccc2)C1=O)NCCN1CCOCC1
102 % of control

Entry O=C(Nc1ccc(Cl)cc1)Nc1nnc(/C=C/c2ccc(Cl)c(Cl)c2)o1 has what T/C?
101 % of control

Value lookup for T/C; key = O=C1CCCC2=C1C(c1ccc(Cl)c(Cl)c1)C1=C(CCCC1=O)O2
94 % of control

Item under review: CC(C)(C)OOC(=O)Cc1ccccc1 . Reported T/C?
122 % of control

T/C for Cc1ccc(NC(=O)Oc2ccc([N+](=O)[O-])cc2)cc1S(=O)(=O)F ?
95 % of control

Query (compound): CC(C)OCc1cn[nH]n1 ; field requested: T/C
103 % of control

Look up T/C for this compound: O=C1CSC(=S)N1c1ccc2c(c1)OCO2
90 % of control

State the recorded T/C for this entry: C/C=C\c1noc2c1C(=O)OC(C)C2 (configuration not stated)
103 % of control

Looking for the measured T/C of C[C@H]1C[C@](C)(CO)Oc2oc3ccccc3c(=O)c21 , can you help?
111 % of control

Dear colleague, I am looking for the recorded T/C of the following compound: OCc1ccccc1Cn1ccnc1
96 % of control

---

# System: P388 leukemia ip, CD2F1 mice, survival T/C
# method description: NCI In Vivo Anticancer Drug Screen. Data for tumor model P388 Leukemia (intraperitoneal) in CD2F1 (CDF1) mice
# condition description: endpoint: median survival time; dose: 100.0 mg/kg/injection; schedule: Q04DX003 (ip); vehicle: Klucel (hydroxypropylcellulose) (HPC)
Toxic doses and inconclusive results are not listed. Rule for the calls: active = survival T/C of 150% or more; inactive = T/C below 125% in these data.
// one of active, inactive, no free text

Solved cases below.
| compound | label value |
| --- | --- |
| S=C(Nc1ccccc1)Nc1ccc(N(CCCl)CCCl)cc1 | inactive |
| c1ccc(P(CCP(c2ccccc2)c2ccccc2)c2ccccc2)cc1 | active |
| COc1cc2c(c(OC)c1OC)CCC/C2=N\NC(N)=S | inactive |
| Cc1cc(CCN)c(C)c2c1oc1ccccc12 | inactive |
| CC(OC(=O)Nc1cccc2ccccc12)C(N)=O (stereo not drawn) | inactive |
| NC(=O)c1nnn(-c2ccccc2)n1 | inactive |
| COc1ccc(CCN/C=C2\Cc3c(Cl)cccc3C2=O)cc1OC | inactive |
| O=C1OCCOCCOCCOCCOCCOC(=O)c2cccc1n2 | inactive |

GET /call?item= CCCCCCCC/C=C\CCCCCCCC(=O)OC/C=C/COC(=O)c1ccccc1 returns the recorded outcome of this test.
inactive

Which outcome was entered for the compound C#CCOc1c(Cl)cc(Cl)c2ccccc12 in this test?
inactive

Give the logged outcome of this assay for the following compound: N#Cc1ccccc1N=Nc1nc(N)c(C(N)=O)[nH]1
inactive

Tell me the assay call for Cn1cnc2cc3c(cc2c1=O)nc1n3CCOC1 please.
inactive

Which outcome did this test record for the compound COC(OC)C1(C)NC(=O)NC1=O (stereo not drawn) ?
inactive
